Collected from the literature: IC50 of various molecules toward Serine/threonine-protein kinase PAK 1 (Homo sapiens).
MEASUREMENT_TYPE: IC50 (µM)

> print(dat)
                                   molecule                               test.system  measurement.type  numeric.value
1  O=C(NC1CCN(c2ncnc3[nH]ncc23)CC1)c1cccc(Cl)c1Cl  Serine/threonine-protein kinase PAK 1 (Homo sapiens)              IC50           4.17
2  Cc1ccc(C(=O)N2CCC(Nc3ncnc4[nH]ncc34)CC2)cc1  Serine/threonine-protein kinase PAK 1 (Homo sapiens)              IC50           39.5
3  Cc1[nH]nc2ccc(-c3cc(OC[C@@H](N)Cc4c[nH]c5ccccc45)cnc3-c3ccoc3)cc12  Serine/threonine-protein kinase PAK 1 (Homo sapiens)              IC50          0.031
4  S=C(Nc1cccc(Cl)c1)N1CCC(Nc2ncnc3[nH]ncc23)CC1  Serine/threonine-protein kinase PAK 1 (Homo sapiens)              IC50           7.89
5               c1nc2nc(NC3CCCCC3)ncc2[nH]1  Serine/threonine-protein kinase PAK 1 (Homo sapiens)              IC50             31
6  Cc1ccc(NC(=O)N2CCC(Nc3ncnc4[nH]ncc34)CC2)cc1  Serine/threonine-protein kinase PAK 1 (Homo sapiens)              IC50           17.4
7  CCn1c(=O)c(-c2ccc(Cl)cc2Cl)cc2cnc(Nc3ccc(N4CCN(C)CC4)cc3)nc21  Serine/threonine-protein kinase PAK 1 (Homo sapiens)              IC50           0.02
8  CC(Sc1ncnc2nc[nH]c12)c1ccccc1Cl (stereo not given)  Serine/threonine-protein kinase PAK 1 (Homo sapiens)              IC50             23

A: O=C(Nc1cc(C(F)(F)F)cc(C(F)(F)F)c1)NC1CCN(c2ncnc3[nH]ncc23)CC1
B: O=C(Nc1ccc(F)cc1F)NC1CCN(c2ncnc3[nH]ncc23)CC1
C: COc1ccc(C(=O)NC2CCN(c3ncnc4[nH]ncc34)CC2)cc1
D: O=C(Nc1ccc(F)cc1F)N1CCC(Nc2ncnc3[nH]ncc23)CC1
// sort entries: IC50, high to low To answer, write out the labels according to the requested order.
C, D, B, A

###

pIC50: −log10 of the molar value.
Collected from the literature: pIC50 of various molecules toward Serine/threonine-protein kinase PAK 1 (Homo sapiens, UniProt Q13153).

> print(dat)
                                   molecule  measurement.type  result
1  Cc1n[nH]c2ccc(-c3cc(N[C@@H](CO)c4ccccc4)cnc3Cl)cc12             pIC50  < 6.00
2                    CCCCCSc1ncnc2nc[nH]c12             pIC50    4.42

Now turn to the next molecule.
# return pIC50 of O=C(c1ccc(C(F)(F)F)cc1)N1CCC(Nc2ncnc3[nH]ncc23)CC1 (system: Serine/threonine-protein kinase PAK 1 (Homo sapiens, UniProt Q13153))
# Sequence (Q13153 whole entry): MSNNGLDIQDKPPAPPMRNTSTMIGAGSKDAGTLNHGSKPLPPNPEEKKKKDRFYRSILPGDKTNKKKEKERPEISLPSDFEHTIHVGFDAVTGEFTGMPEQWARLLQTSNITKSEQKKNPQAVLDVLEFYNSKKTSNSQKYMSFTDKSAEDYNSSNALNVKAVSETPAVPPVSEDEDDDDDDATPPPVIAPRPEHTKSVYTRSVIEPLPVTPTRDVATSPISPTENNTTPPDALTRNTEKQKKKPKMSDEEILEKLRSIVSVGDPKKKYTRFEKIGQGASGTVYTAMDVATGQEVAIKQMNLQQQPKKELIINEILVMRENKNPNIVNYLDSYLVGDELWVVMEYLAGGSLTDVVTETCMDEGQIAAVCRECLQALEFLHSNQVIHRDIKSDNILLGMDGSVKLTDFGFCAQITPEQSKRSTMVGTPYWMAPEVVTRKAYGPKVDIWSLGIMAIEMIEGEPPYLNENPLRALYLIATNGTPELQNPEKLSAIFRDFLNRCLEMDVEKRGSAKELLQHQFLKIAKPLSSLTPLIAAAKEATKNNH
< 4.30
